Overview of recorded TGI for various molecules
test system: TK-10 renal; experiment: NCI tumour cell line growth inhibition, 48 h

[
  {
    "Molecule": "Nc1cc(C(F)F)c(-c2nc(N3[C@@H]4CC[C@H]3COC4)nc(N3[C@@H]4CC[C@H]3COC4)n2)cn1",
    "TGI": "3.22 µM"
  },
  {
    "Molecule": "CC(=O)OC1CC(OC2C(O)CC(OC3C(O)CC(OC4CCC5(C)C(CCC6C5CC(O)C5(C)C(C7=CC(=O)OC7)CCC65O)C4)OC3C)OC2C)OC(C)C1O (stereo not drawn) (tested in a mixture with another compound)",
    "TGI": "0.114 µM"
  },
  {
    "Molecule": "COc1cc(/C=C2\\NC(=O)N(/C=C3\\C(=O)Oc4ccccc4C3=O)C2=O)ccc1O",
    "TGI": "> 100 µM"
  }
]
